- METHOD DESCRIPTION: Heparin binding activity, Hi Trap Heparin HP column, NaCl step elution
- CONDITION INFO: 500 μl fractions of heparin column elution
Where no end group is shown, it is not given here. [ ]: non-standard residue; d: D form.
READOUT TYPE: fraction number

See these solved cases before continuing.
# CHAIN, fraction number
measured = [
    ("RRGRRRGRRRGRRRGKK (listed as Homo sapiens) [ST100,089]", "34-35"),
    ("RRGRAARRGRAARRGRAAKKKPSQSSHPPLSTA (listed as Homo sapiens) [ST100,073]", "26-27"),
    ("RRGRAAKKKRRGRAAKKKRLGYVVSDGRGDYP [ST100,074]", "27-28"),
    ("RRQRRRGRRRQRRRGKK (listed as Homo sapiens) [ST100,090]", "33-34"),
]

Turning now to a further record.
Lookup: Give the reported fraction number for this sequence. RKGRRKGRRKGRRKGRRKGKK ([dR][dK]G[dR][dR][dK]G[dR][dR][dK]G[dR][dR][dK]G[dR][dR][dK]G[dK][dK]; listed as Homo sapiens) [ST100,087]
Found: 35-36
